In this section, each of the binders is paired with its reported glycan array binding signal (z-score).
target: Gal(b1-4)GlcNAc(b1-2)[Gal(b1-4)GlcNAc(b1-6)]Man(a1-6)[Gal(b1-4)GlcNAc(b1-2)Man(a1-3)]Man(b1-4)GlcNAc(b1-4)[Fuc(a1-6)]GlcNAc; experiment: glycan array binding signal (z-score within array); higher = stronger binding; conditions: glycan notation: IUPAC condensed, linker removed
The entries come from a sample that favours the strongest signals as a whole.
The reply should be a number, written without any unit.

Worked examples follow.
XL-35 (Xenopus laevis) (protein) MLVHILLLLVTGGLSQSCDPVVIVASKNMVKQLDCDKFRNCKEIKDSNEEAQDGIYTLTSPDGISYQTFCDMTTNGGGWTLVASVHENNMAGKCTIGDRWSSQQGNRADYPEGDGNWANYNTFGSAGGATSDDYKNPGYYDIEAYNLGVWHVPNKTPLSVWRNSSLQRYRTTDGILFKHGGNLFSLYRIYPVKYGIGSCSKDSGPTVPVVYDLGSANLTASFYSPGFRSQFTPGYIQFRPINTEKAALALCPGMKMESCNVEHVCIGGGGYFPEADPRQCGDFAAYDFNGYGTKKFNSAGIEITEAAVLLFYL    0.078
APVPVTKLVCDGDTYKCTAYLDFGDGRWVAQWDTNVFHTG [PhoSpL (Pholiota squarrosa)]    8.42
AT5G01260(PC)(40) (Arabidopsis thaliana), Q9LFB0 (protein) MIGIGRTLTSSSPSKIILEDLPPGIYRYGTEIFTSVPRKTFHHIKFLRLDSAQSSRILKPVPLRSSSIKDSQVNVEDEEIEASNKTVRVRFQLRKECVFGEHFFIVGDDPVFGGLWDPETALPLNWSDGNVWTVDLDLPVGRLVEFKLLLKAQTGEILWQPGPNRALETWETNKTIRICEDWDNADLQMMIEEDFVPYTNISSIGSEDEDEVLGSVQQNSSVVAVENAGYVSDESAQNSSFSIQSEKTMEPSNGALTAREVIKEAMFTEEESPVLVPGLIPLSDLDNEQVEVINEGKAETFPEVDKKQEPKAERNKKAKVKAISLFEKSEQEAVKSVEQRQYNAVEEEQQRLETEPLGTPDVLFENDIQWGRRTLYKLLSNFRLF    0.414
ECL (Erythrina cristagalli), Q6YD91 (protein) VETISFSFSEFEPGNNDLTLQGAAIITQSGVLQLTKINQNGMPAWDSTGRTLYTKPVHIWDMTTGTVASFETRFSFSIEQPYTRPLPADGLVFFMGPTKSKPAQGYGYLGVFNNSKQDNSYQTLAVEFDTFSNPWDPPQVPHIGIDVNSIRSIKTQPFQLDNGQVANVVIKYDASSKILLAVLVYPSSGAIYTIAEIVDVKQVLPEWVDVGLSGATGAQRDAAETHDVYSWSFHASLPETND    5.09

# ---- query binder ----
For Clec18A (Homo sapiens) (protein) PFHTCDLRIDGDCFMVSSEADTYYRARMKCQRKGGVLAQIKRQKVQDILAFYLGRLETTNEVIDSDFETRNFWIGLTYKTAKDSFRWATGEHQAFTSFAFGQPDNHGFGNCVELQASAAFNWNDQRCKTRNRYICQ , what is its reported glycan array binding signal (z-score)?
3.1

Numbers sourced from the supplement of paper PMC8728848.
